tested on: UACC-62 melanoma; experiment: NCI tumour cell line growth inhibition, 48 h
Label True when TGI >= 10 µM; otherwise False.

Consider the worked cases shown below.
CCCCCCCCCCCOc1ccc(C(=O)C(=O)c2ccc(OCCCCCCCCCCC)c(OCCCCCCCCCCC)c2)cc1OCCCCCCCCCCC | True
CC/C=C\CCC/C=C1/C(=O)C=C[C@@H]1C/C=C\CCCC(=O)OC | False

In: Reported TGI at or above 10 µM? O=C(Nc1ccccc1)NS(=O)(=O)c1ccc(-n2nc3c(c2-c2cccs2)Cc2ccccc2-3)cc1
Out: True

In: Reported TGI at or above 10 µM? Cc1nc2ccccc2c(=O)n1-c1ccccc1I
Out: True

In: Reported TGI at or above 10 µM? O=C([O-])CC(=O)[O-].O=C([O-])CC(=O)[O-].[K+].[Pd+2]
Out: True

In: Reported TGI at or above 10 µM? COC1CCC2C(NS(=O)(=O)c3ccc(C)cc3)CCCC2O1 (stereo not given) (tested in a mixture with another compound)
Out: True

In: Reported TGI at or above 10 µM? COC(=O)c1cc2c(n1S(=O)(=O)c1ccc(C)cc1)C(=O)C(=O)c1[nH]cc(C(=O)OCc3ccccc3)c1-2
Out: False

In: Reported TGI at or above 10 µM? O=C(COc1ccc(Br)cc1Br)N1N=C(c2ccc([N+](=O)[O-])o2)CC1(O)c1ccccc1 (stereo not given)
Out: True

In: Reported TGI at or above 10 µM? CC(C)/C(Cl)=N\OC(=O)Nc1ccc(S(N)(=O)=O)cc1
Out: True

In: Reported TGI at or above 10 µM? COC(=O)C1CCC(=O)N1C(c1ccccc1)c1ccc(OC)c(OC)c1 (stereo not given)
Out: True

In: Reported TGI at or above 10 µM? Cc1nc2ccccc2c(N)c1-c1cc(C)c2c(C)nc3ccccc3c2n1
Out: False

In: Reported TGI at or above 10 µM? COc1ccc2c(c1)/C(=C/c1c(C)nc3sc(C)nn13)C(=O)N2
Out: True

In: Reported TGI at or above 10 µM? Clc1ccc2c(NCCCCNc3nc(N4CCCCC4)nc4ccccc34)ccnc2c1
Out: False

Cited source for all entries: PubChem BioAssay (NCI)
